# Test system: Sarcina lutea IAM1009
# measurement_description: in vitro MIC, agar streak method
# Format: cell-based
# condition_label: Micrococcus luteus, IAM1009, Sarcina lutea IAM-1009; Heart infusion agar; read-out: MIC
parameter: MIC (µg/mL)

[[record]]
compound = "COC(=O)C1c2cc3c(c(O)c2C(OC2CC(N(C)C)C(O)C(C)O2)CC1(O)CC(C)=O)C(=O)c1c(O)cccc1C3=O (centres unmarked)"
reported = 25

[[record]]
compound = "COC(=O)C1c2cc3c(c(O)c2C(OC2CC(N(C)C)C(OC4CCC(OC5CCC(O)C(C)O5)C(C)O4)C(C)O2)CC1(O)CC(C)=O)C(=O)c1c(O)cccc1C3=O (centres unmarked)"
reported = 12.5

[[record]]
compound = "COC(=O)C1c2cc3c(c(O)c2C(OC2CC(N(C)C)C(OC4CCC(OC5CCC(O)C(C)O5)C(C)O4)C(C)O2)CC1(C)O)C(=O)c1c(O)cccc1C3=O (centres unmarked)"
reported = 6.25

[[record]]
compound = "COC(=O)C1c2cc3c(c(O)c2C(OC2CC(N(C)C)C(OC4CC(O)C(OC5CCC(O)C(C)O5)C(C)O4)C(C)O2)CC1(C)O)C(=O)c1c(O)cccc1C3=O (centres unmarked)"
reported = 3.12

[[record]]
compound = "COC(=O)C1c2cc3c(c(O)c2C(OC2CC(N(C)C)C(OC4CC(O)C(OC5CCC(O)C(C)O5)C(C)O4)C(C)O2)CC1(O)CC(C)=O)C(=O)c1c(O)cccc1C3=O (centres unmarked)"
reported = 3.12

